Ref: ChEMBL document CHEMBL4689842

test system: Fibroblast; test: Multiplex assay against human fibroblast; format: toxicity, cell-based; details: 12 h, 10 µM, compound concentration 10 uM, replicate 1
Parameter Population Healthy Nuclei (%): see the listing below.
Answer with the figure and its unit, nothing else.

[[record]]
compound = "CN1CCC(=C2c3ccccc3CC(=O)c3sccc32)CC1.O=C(O)/C=C/C(=O)O [KETOTIFEN FUMARATE]"
recorded_result = "51%"

[[record]]
compound = "CCc1cccc(CC)c1NC(=O)c1nn(C)c2c1CCc1cnc(Nc3ccc(C(=O)NC4CCN(C)CC4)cc3OC(F)(F)F)nc1-2"
recorded_result = "51%"


In the following, a different compound is considered.
Memo: `Cl.Oc1ccc2c3c1O[C@H]1c4[nH]c5c(c4C[C@@]4(O)[C@@H](C2)N(CC2CC2)CC[C@]314)C[C@@]1(O)[C@H]2Cc3ccc(O)c4c3[C@@]1(CCN2CC1CC1)[C@H]5O4` , reported Population Healthy Nuclei (%): 47%
